Where do these numbers come from? They come from the supplement of paper PMC4466140.

test-target: CaFus1
assay-name: SPOT peptide array binding signal intensity (averaged, normalized) (arbitrary units (background-subtracted, floor 0; scale differs between SH3 domains)); higher = stronger binding of the SH3 domain to the peptide
attribute-measured: SPOT peptide array binding signal intensity

binder	recorded-result
SAPDIPPRSPNRNAH	≤ 0
QPWTDQFEKLEKEVS	≤ 0
AAAPKHAPPPVPNET	≤ 0
